Consider the following compounds; for each one, report its IC50.
Target: Replicase polyprotein 1ab (Severe acute respiratory syndrome-related coronavirus, UniProt P0C6X7)
Give bare numbers, in µM.

CCN1/C(=C\C=C\C2=CC(=C/c3sc4ccccc4[n+]3CC)/CC(C)C2)Sc2ccccc21 (stereo not given) : 2
C(/C1=C2Sc3ccccc3N2CC1)=C1\CC[n+]2c1sc1ccccc12 : 10.5
CCC(/C=C1\Sc2cc(/C=C/c3ccccc3)ccc2N1CC)=C\c1sc2cc(C)c(C)cc2[n+]1CC : 6.6
CCN1/C(=C\C=C\c2sc3ccc(-c4nc5ccccc5s4)cc3[n+]2CC)Sc2ccc(-c3nc4ccccc4s3)cc21 : 2.5

Proceed to the following item.
Recorded result, CCC(=C\c1sc2c3ccccc3ccc2[n+]1CC)/C=C1/Sc2cc(C)c(C)cc2N1CC , IC50: 5.4
